# assay target: T1, human MSLN-R1-his protein (human, UniProt Q13421 296-390)
# T1 construct: Made in HEK293E cells, purified on nickel column; also called hMSLN-R1-his; human MSLN-R1 protein; not shown: His tag
# T1 chain: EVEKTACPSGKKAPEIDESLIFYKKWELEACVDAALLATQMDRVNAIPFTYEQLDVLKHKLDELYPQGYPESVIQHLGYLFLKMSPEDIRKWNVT
# test: ELISA, coated antigen, antibody 0.2 nM
measure name: OD450
Simply state the number, no unit and no words.

Some solved entries appear below for comparison.
{"binder": "S009-F7.18.10 chimeric antibody (antibody, human IgG1, kappa, V domains shown, Human-murine chimeric antibody, human IgG1/kappa constant regions) VH: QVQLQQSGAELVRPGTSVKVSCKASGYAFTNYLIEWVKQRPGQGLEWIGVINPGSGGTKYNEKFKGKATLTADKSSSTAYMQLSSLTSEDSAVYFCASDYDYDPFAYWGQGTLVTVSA VL: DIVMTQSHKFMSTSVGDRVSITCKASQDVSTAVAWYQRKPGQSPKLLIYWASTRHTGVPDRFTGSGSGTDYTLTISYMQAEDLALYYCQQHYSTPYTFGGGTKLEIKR", "OD450": 2.46}
{"binder": "S009-F7.11.11 chimeric antibody (antibody, human IgG1, kappa, V domains shown, Human-murine chimeric antibody, human IgG1/kappa constant regions) VH: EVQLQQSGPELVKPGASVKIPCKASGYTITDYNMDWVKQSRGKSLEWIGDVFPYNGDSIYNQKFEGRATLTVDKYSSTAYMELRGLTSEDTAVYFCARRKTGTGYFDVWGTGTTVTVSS VL: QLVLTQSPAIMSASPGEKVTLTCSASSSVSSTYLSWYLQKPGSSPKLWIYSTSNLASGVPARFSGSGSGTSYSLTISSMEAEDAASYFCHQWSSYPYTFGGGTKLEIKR", "OD450": 0.05}
{"binder": "S009-F7.26.15 chimeric antibody (antibody, human IgG1, kappa, V domains shown, Human-murine chimeric antibody, human IgG1/kappa constant regions) VH: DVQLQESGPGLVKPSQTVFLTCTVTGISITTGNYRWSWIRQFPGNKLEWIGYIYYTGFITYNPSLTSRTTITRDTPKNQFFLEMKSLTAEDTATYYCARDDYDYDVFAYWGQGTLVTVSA VL: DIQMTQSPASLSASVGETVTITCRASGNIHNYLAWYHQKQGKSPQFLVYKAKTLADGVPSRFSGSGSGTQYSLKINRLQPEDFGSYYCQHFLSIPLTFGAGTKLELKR", "OD450": 0.05}

Please fill in: OD450 reported for S009-F7.12.13 chimeric antibody (antibody, human IgG1, kappa, V domains shown, Human-murine chimeric antibody, human IgG1/kappa constant regions) VH: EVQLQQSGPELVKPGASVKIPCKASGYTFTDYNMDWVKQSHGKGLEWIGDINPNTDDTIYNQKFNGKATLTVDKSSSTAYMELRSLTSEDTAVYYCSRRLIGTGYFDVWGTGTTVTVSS VL: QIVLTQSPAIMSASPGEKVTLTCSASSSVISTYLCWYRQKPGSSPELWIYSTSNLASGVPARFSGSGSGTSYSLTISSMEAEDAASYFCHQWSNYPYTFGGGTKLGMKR = 0.05

Please fill in: OD450 reported for S009-F7.48.1 chimeric antibody (antibody, human IgG1, kappa, V domains shown, Human-murine chimeric antibody, human IgG1/kappa constant regions) VH: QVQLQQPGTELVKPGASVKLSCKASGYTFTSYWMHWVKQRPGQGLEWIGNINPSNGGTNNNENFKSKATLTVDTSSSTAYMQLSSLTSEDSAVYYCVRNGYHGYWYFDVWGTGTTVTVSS VL: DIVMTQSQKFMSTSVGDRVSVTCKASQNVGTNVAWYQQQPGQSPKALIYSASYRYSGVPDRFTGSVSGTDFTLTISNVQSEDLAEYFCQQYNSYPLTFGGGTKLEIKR = 0.04

Data provenance is patent US20250250357A1.
